B1: TMEM106C (parent)
chain: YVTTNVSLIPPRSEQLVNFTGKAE

# Variants of: B1
# protocol_description: protein stability index of a GFP-peptide fusion (GPS, HEK-293T) (PSI 1-6); higher = more stable;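 note: lentivirally expressed fusions sorted by FACS into six bins by GFP to DsRed ratio, PSI derived from sequencing read proportions per bin multiplied by bin number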
# condition_context: c terminus: a fixed tail appended
quantity_measured: protein stability index

1) Y1F :: 2.21

So for `R12I` , the logged protein stability index turned out to be 1.78

So for `N5R` , the logged protein stability index turned out to be 2.17

So for `S13Y` , the logged protein stability index turned out to be 2.2

So for `S13D` , the logged protein stability index turned out to be 1.57

So for `G21P` , the logged protein stability index turned out to be 3.07

So for `T3N` , the logged protein stability index turned out to be 1.82

So for `N5E` , the logged protein stability index turned out to be 2.05

So for `L8F` , the logged protein stability index turned out to be 2.54

So for `T20H` , the logged protein stability index turned out to be 1.86

So for `N18E` , the logged protein stability index turned out to be 1.3

So for `P11M` , the logged protein stability index turned out to be 1.45
